Here the recorded MIC is given for each entry.
# System: E. coli RCMB 010052
Numeric only. Scale: µg/mL

Requested read-out: MIC. Entry: Cc1nnc2n(-c3ccccc3)c(=S)n(-c3ccc(S(N)(=O)=O)cc3)nc1-2
62.5

Now consider Cc1n[nH]c2nn(-c3ccc(S(N)(=O)=O)cc3)nc12 and answer again.
1.95

What do you have for O=C(O)c1cn(C2CC2)c2cc(N3CCNCC3)c(F)cc2c1=O [Ciprofloxacin, reference compound] ?
0.01

* * *

# melting point per entry

In [3]: df
Out[3]:
                    structure_smiles_string         result
0  Cc1nnc2n(-c3ccccc3)c(=S)n(-c3cccc4ccccc34)nc1-2  257 to 259 °C

Requested read-out: melting point. Entry: CC1=NNC(=O)C1=NNc1cccc2ccccc12
189 to 191 °C

Entry to check: Cc1nnc2c(C#N)c(N)n(-c3cccc4ccccc34)nc1-2
288 to 290 °C
